# TESTED_TARGET: HLA-A*29:02
# PROTOCOL: IEDB peptide-MHC binding, purified MHC/competitive/radioactivity; filed as Kd, often an IC50 or EC50 that approximates it; bounds were set here for any values at or beyond the usual limits of such assays
# APPLIED_CONDITIONS: source organism: Plasmodium falciparum 3D7
sequences and their reported Kd

Here is how some sequences turned out for Kd.
SFFMNRFYI
0.2 µM
KYEALIKLL
≥ 10 µM
NFINFIKVL
≥ 10 µM

Now take the following sequence into account.
// output Kd; input RMTSLKNEL ; system HLA-A*29:02
≥ 10 µM

---

sequences and their reported Kd
# TESTED_TARGET: HLA-A*26:01
# PROTOCOL: IEDB peptide-MHC binding, purified MHC/competitive/radioactivity; filed as Kd, often an IC50 or EC50 that approximates it; bounds were set here for any values at or beyond the usual limits of such assays
# APPLIED_CONDITIONS: source organism: Plasmodium falciparum 3D7

Here is how some sequences turned out for Kd.
NHEQKLSEY
≥ 10 µM
QEEQKKYIY
≥ 10 µM

Now take the following sequence into account.
In one line, give reported Kd of the entry NVDQQNDMY .
≥ 10 µM

---

# TESTED_TARGET: HLA-A*01:01
# PROTOCOL: IEDB peptide-MHC binding, purified MHC/competitive/radioactivity; filed as Kd, often an IC50 or EC50 that approximates it; bounds were set here for any values at or beyond the usual limits of such assays
# APPLIED_CONDITIONS: source organism: Plasmodium falciparum 3D7
sequences and their reported Kd
Give the number; nM is assumed, so skip it.

Here is how some sequences turned out for Kd.
QAAESNERY
353
SSFFMNRFY
239

In one line, give reported Kd of the entry SSPLFNNFY .
117

---

# TESTED_TARGET: HLA-A*33:01
# PROTOCOL: IEDB peptide-MHC binding, purified MHC/competitive/radioactivity; filed as Kd, often an IC50 or EC50 that approximates it; bounds were set here for any values at or beyond the usual limits of such assays
# APPLIED_CONDITIONS: source organism: Plasmodium falciparum 3D7
Label TRUE when Kd is strictly below 1000 nM; otherwise label FALSE.

Would you please look over these solved cases?
IFISFYLINK
TRUE
TTRYKYLNK
TRUE
AVSEIQNNK
FALSE
SISGKYDIK
FALSE
YLINKHWQR
TRUE
ELFDKDTFFK
TRUE

For KILIKIPVTK , is the recorded Kd below the cut-off of 1000 nM?
FALSE

For KSMLKELIK , is the recorded Kd below the cut-off of 1000 nM?
FALSE

For FISFYLINK , is the recorded Kd below the cut-off of 1000 nM?
FALSE

---

# TESTED_TARGET: HLA-A*31:01
# PROTOCOL: IEDB peptide-MHC binding, purified MHC/competitive/radioactivity; filed as Kd, often an IC50 or EC50 that approximates it; bounds were set here for any values at or beyond the usual limits of such assays
# APPLIED_CONDITIONS: source organism: Plasmodium falciparum 3D7
pKd: −log10 of the molar value.
sequences and their reported pKd

ALERLLSLKK
≤ 5.00
QQNQESKIMK
≤ 5.00
PVVCSMEYK
≤ 5.00
SSFDIKSEVK
≤ 5.00
SQDLACIFDA
≤ 5.00

In one line, give reported pKd of the entry TFLESSFDIK .
≤ 5.00

In one line, give reported pKd of the entry NIFLRFIPDK .
≤ 5.00

In one line, give reported pKd of the entry SQVSNSDSYK .
≤ 5.00

---

# TESTED_TARGET: HLA-A*01:01
# PROTOCOL: IEDB peptide-MHC binding, purified MHC/competitive/radioactivity; filed as Kd, often an IC50 or EC50 that approximates it; bounds were set here for any values at or beyond the usual limits of such assays
# APPLIED_CONDITIONS: source organism: Plasmodium falciparum 3D7
pKd: −log10 of the molar value.
READOUT_NAME: pKd

QEEQKKYIY
≤ 5.00

// output pKd; input NHEQKLSEY ; system HLA-A*01:01
≤ 5.00

// output pKd; input LNEQLIYTY ; system HLA-A*01:01
≤ 5.00

// output pKd; input LEASISGKY ; system HLA-A*01:01
≤ 5.00

---

# TESTED_TARGET: HLA-A*33:01
# PROTOCOL: IEDB peptide-MHC binding, purified MHC/competitive/radioactivity; filed as Kd, often an IC50 or EC50 that approximates it; bounds were set here for any values at or beyond the usual limits of such assays
# APPLIED_CONDITIONS: source organism: Plasmodium falciparum 3D7
READOUT_NAME: pKd
// field semantics: pKd = negative decimal log of concentration (mol/L)

EQRLPLLPK
6.01
FSYDLRLNK
5.90
IALLIIPPK
5.85
YLFNQHIKK
5.10
GTMYILLKK
5.07
SSPLFNNFYK
5.76
IFLRFIPDK
5.88
LFDKDTFFK
5.92

// output pKd; input LTNHLINTPK ; system HLA-A*33:01
6.43

// output pKd; input LQMMNVNLQK ; system HLA-A*33:01
5.95

---

# TESTED_TARGET: HLA-A*31:01
# PROTOCOL: IEDB peptide-MHC binding, purified MHC/competitive/radioactivity; filed as Kd, often an IC50 or EC50 that approximates it; bounds were set here for any values at or beyond the usual limits of such assays
# APPLIED_CONDITIONS: source organism: Plasmodium falciparum 3D7
READOUT_NAME: Kd

In one line, give reported Kd of the entry YQNFQNADK .
≥ 10 µM

In one line, give reported Kd of the entry IIALLIIPPK .
≥ 10 µM

In one line, give reported Kd of the entry SISGKYDIK .
≥ 10 µM

---

# TESTED_TARGET: HLA-A*33:01
# PROTOCOL: IEDB peptide-MHC binding, purified MHC/competitive/radioactivity; filed as Kd, often an IC50 or EC50 that approximates it; bounds were set here for any values at or beyond the usual limits of such assays
# APPLIED_CONDITIONS: source organism: Plasmodium falciparum 3D7
pKd: −log10 of the molar value.
READOUT_NAME: pKd

In one line, give reported pKd of the entry YQNFQNADK .
≤ 5.00

In one line, give reported pKd of the entry ALERLLSLK .
≤ 5.00

In one line, give reported pKd of the entry PVVCSMEYK .
≤ 5.00

In one line, give reported pKd of the entry TFLESSFDIK .
≤ 5.00

In one line, give reported pKd of the entry SQDLACIFDA .
≤ 5.00

In one line, give reported pKd of the entry SSFDIKSEVK .
≤ 5.00

In one line, give reported pKd of the entry VVCSMEYKK .
≤ 5.00

In one line, give reported pKd of the entry KINSNFLLK .
≤ 5.00

In one line, give reported pKd of the entry ILCIEGEQK .
≤ 5.00

In one line, give reported pKd of the entry ALERLLSLKK .
≤ 5.00

---

# TESTED_TARGET: HLA-A*33:01
# PROTOCOL: IEDB peptide-MHC binding, purified MHC/competitive/radioactivity; filed as Kd, often an IC50 or EC50 that approximates it; bounds were set here for any values at or beyond the usual limits of such assays
# APPLIED_CONDITIONS: source organism: Plasmodium falciparum 3D7
READOUT_NAME: Kd

Here is how some sequences turned out for Kd.
SQVSNSDSYK
≥ 10 µM
QQNQESKIMK
≥ 10 µM

Now take the following sequence into account.
In one line, give reported Kd of the entry ALKISQLQK .
≥ 10 µM
